Provenance of the data: patent US10513521B2

Reported log10 of IC50 values follow for various compounds
biological target: ALK2 (Homo sapiens, UniProt Q04771); test: TR-FRET enzymatic ALK kinase assay, ALK2
Sequence (Q04771 21-509): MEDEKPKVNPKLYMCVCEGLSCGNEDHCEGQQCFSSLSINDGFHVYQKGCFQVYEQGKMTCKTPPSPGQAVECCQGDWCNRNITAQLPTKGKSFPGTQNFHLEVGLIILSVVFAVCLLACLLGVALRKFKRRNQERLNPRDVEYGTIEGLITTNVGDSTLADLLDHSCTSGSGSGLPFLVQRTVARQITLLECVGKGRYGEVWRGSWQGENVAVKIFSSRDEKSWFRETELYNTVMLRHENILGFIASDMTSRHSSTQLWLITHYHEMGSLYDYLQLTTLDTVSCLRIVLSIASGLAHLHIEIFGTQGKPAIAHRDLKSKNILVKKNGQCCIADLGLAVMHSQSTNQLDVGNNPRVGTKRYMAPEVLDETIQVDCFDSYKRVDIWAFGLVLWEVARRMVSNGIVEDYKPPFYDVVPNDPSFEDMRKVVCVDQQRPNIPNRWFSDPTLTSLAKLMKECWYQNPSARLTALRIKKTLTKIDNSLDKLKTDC
assay_readout: log10 of IC50 (log10 of the value in nM)

[[record]]
compound = "C[C@@H]1CNC[C@H](C)N1c1ccc(-c2cnc3c(-c4cccc(C#N)c4)cnn3c2)cc1"
recorded_number = 2.15

[[record]]
compound = "c1ccc(-c2cnn3cc(-c4ccc(CCN5CCCCC5)cc4)cnc23)cc1"
recorded_number = 2.62

[[record]]
compound = "CC(O)c1cccc(-c2cnn3cc(-c4ccc(C5CCCCN5)cc4)cnc23)c1 (stereo not shown)"
recorded_number = 2.18

[[record]]
compound = "CN(C)CCOc1ccc(-c2cnc3c(-c4ccc(S(N)(=O)=O)c5ccccc45)cnn3c2)cc1"
recorded_number = 2.04

[[record]]
compound = "C[S+](=O)([O-])c1cccc(-c2cnn3cc(-c4ccc(OC5(CN6CCOCC6)CC5)cc4)cnc23)c1"
recorded_number = 1.49

[[record]]
compound = "C[C@@H]1CNC[C@H](C)N1c1ccc(-c2cnc3c(-c4ccc(C#N)c5ccccc45)cnn3c2)cc1"
recorded_number = 1.97

[[record]]
compound = "CC(O)c1ccc(-c2cnn3cc(-c4ccc(N5[C@H](C)CNC[C@@H]5C)cc4)cnc23)c2ccccc12 (stereo partly shown)"
recorded_number = 1.15

[[record]]
compound = "CC(O)c1cccc(-c2cnn3cc(-c4ccc(C5CCNC5)cc4)cnc23)c1 (stereo not shown)"
recorded_number = 2.11

[[record]]
compound = "Cc1ccc(S(C)(=O)=O)cc1-c1cnn2cc(-c3ccc(N4[C@H](C)CNC[C@@H]4C)cc3)cnc12"
recorded_number = 3.34

[[record]]
compound = "O=C(O)c1cccc2c(-c3cnn4cc(-c5ccc(N6CCNCC6)cc5)cnc34)cccc12"
recorded_number = 1.00

[[record]]
compound = "CC(O)c1cccc(-c2cnn3cc(-c4ccc(C5(C)CCNCC5)cc4)cnc23)c1 (stereo not shown)"
recorded_number = 1.76

[[record]]
compound = "CC(O)c1cccc(-c2cnn3cc(-c4ccc(OC5(CN6CCOCC6)CC5)cc4)cnc23)c1 (stereo not shown)"
recorded_number = 1.65

[[record]]
compound = "C[C@@H](O)c1cccc(-c2cnn3cc(-c4ccc(CCN5CCCC(O)C5)cc4)cnc23)c1 (stereo partly shown)"
recorded_number = 2.08

[[record]]
compound = "C[C@@H]1CNC[C@H](C)N1c1ccc(-c2cnc3c(-c4cccc(C(F)(F)F)c4)cnn3c2)cc1"
recorded_number = 2.23

[[record]]
compound = "C[C@@H]1CNC[C@H](C)N1c1ccc(-c2cnc3c(-c4cccc(C(C)(C)O)c4)cnn3c2)cc1"
recorded_number = 1.11

[[record]]
compound = "NC(c1cccc(-c2cnn3cc(-c4ccc(OCCN5CCCCC5)cc4)cnc23)c1)C(F)(F)F (stereo not shown)"
recorded_number = 2.04

[[record]]
compound = "C[C@@H]1CNC[C@H](C)N1c1ccc(-c2cnc3c(-c4cccc5c(S(=O)(=O)N(C)C)cccc45)cnn3c2)cc1"
recorded_number = 3.51

[[record]]
compound = "CS(=O)(=O)c1cccc(-c2cnn3cc(-c4ccc(C5CCCCN5)cc4)cnc23)c1 (stereo not shown)"
recorded_number = 1.88

[[record]]
compound = "C[C@@H]1CNC[C@H](C)N1c1ccc(-c2cnc3c(-c4ccc(CO)c5ccccc45)cnn3c2)cc1"
recorded_number = 0.99

[[record]]
compound = "CC(O)c1cccc(-c2cnn3cc(-c4ccc(C5(N)CC5)cc4)cnc23)c1 (stereo not shown)"
recorded_number = 2.08

[[record]]
compound = "CC(O)c1cccc(-c2cnn3cc(-c4ccc(N5[C@H](C)CNC[C@@H]5C)cc4)cnc23)c1 (stereo partly shown)"
recorded_number = 1.08

[[record]]
compound = "C[C@@H]1CNC[C@H](C)N1c1ccc(-c2cnc3c(-c4cccc(CS(N)(=O)=O)c4)cnn3c2)cc1"
recorded_number = 1.57


###

Reported IC50 values follow for various compounds
biological target: UniProt:Q04771; assay: TR-FRET enzymatic ALK kinase assay, ALK2
assay_readout: IC50

[[record]]
compound = "CC(O)c1cccc(-c2cnn3cc(-c4ccc(CN5CCCCC5)cc4)cnc23)c1 (stereo not drawn) [Compound 124]"
assay_readout = "IC50"
result = "100 nM"

[[record]]
compound = "CN1CCN(c2ccc(-c3cnc4c(-c5ccc(S(N)(=O)=O)c6ccccc56)cnn4c3)cc2)CC1 [Compound 62]"
assay_readout = "IC50"
result = "74 nM"

[[record]]
compound = "CNS(=O)(=O)c1cccc(-c2cnn3cc(-c4ccc(N5[C@H](C)CNC[C@@H]5C)cc4)cnc23)c1 [Compound 76]"
assay_readout = "IC50"
result = "20 nM"

[[record]]
compound = "C[C@@H]1CNC[C@H](C)N1c1ccc(-c2cnc3c(-c4cc(C#N)cc(S(N)(=O)=O)c4)cnn3c2)cc1 [Compound 79]"
assay_readout = "IC50"
result = "190 nM"

[[record]]
compound = "CC(O)c1cccc(-c2cnn3cc(-c4ccc(CCN5CCC(O)CC5)cc4)cnc23)c1 (stereo not drawn) [Compound 151]"
assay_readout = "IC50"
result = "110 nM"

[[record]]
compound = "NC(c1cccc(-c2cnn3cc(-c4ccc(OC5(CN6CCC(O)CC6)CC5)cc4)cnc23)c1)C(F)(F)F (stereo not drawn) [Compound 180]"
assay_readout = "IC50"
result = "62 nM"

[[record]]
compound = "NC(=O)c1cccc2c(-c3cnn4cc(-c5ccc(N6CCNCC6)cc5)cnc34)cccc12 [Compound 6]"
assay_readout = "IC50"
result = "7 nM"

[[record]]
compound = "C[C@@H](O)c1cccc(-c2cnn3cc(-c4ccc(CCN5CCC(O)CC5)cc4)cnc23)c1 [Compound 159]"
assay_readout = "IC50"
result = "180 nM"

[[record]]
compound = "CS(=O)(=O)c1cccc(-c2cnn3cc(-c4ccc(CCN5CCCC5)cc4)cnc23)c1 [Compound 128]"
assay_readout = "IC50"
result = "80 nM"

[[record]]
compound = "CS(=O)(=O)c1cccc(-c2cnn3cc(-c4ccc(CCN5CCC(O)C5)cc4)cnc23)c1 (stereo not drawn) [Compound 132]"
assay_readout = "IC50"
result = "130 nM"

[[record]]
compound = "CC(O)c1cccc(-c2cnn3cc(-c4ccc(CCN5CCCCC5)cc4)cnc23)c1 (stereo not drawn) [Compound 97]"
assay_readout = "IC50"
result = "99 nM"

[[record]]
compound = "C[C@@H]1CNC[C@H](C)N1c1ccc(-c2cnc3c(-c4ccc(CN)c5ccccc45)cnn3c2)cc1 [Compound 23]"
assay_readout = "IC50"
result = "5310 nM"

[[record]]
compound = "CN1CCC(c2ccc(-c3cnc4c(-c5cccc(S(C)(=O)=O)c5)cnn4c3)cc2)CC1 [Compound 91]"
assay_readout = "IC50"
result = "52 nM"

[[record]]
compound = "CS(=O)(=O)c1cccc(-c2cnn3cc(-c4ccc(OC5(CN6CCC(O)C6)CC5)cc4)cnc23)c1 (stereo not drawn) [Compound 195]"
assay_readout = "IC50"
result = "22 nM"

[[record]]
compound = "NC(c1ccc(-c2cnn3cc(-c4ccc(OCCN5CCCC5)cc4)cnc23)c2ccccc12)C(F)(F)F (stereo not drawn) [Compound 162]"
assay_readout = "IC50"
result = "8100 nM"


###

target: ALK1 (Homo sapiens, UniProt P37023); assay: TR-FRET enzymatic ALK kinase assay, ALK1
Sequence (P37023 22-503): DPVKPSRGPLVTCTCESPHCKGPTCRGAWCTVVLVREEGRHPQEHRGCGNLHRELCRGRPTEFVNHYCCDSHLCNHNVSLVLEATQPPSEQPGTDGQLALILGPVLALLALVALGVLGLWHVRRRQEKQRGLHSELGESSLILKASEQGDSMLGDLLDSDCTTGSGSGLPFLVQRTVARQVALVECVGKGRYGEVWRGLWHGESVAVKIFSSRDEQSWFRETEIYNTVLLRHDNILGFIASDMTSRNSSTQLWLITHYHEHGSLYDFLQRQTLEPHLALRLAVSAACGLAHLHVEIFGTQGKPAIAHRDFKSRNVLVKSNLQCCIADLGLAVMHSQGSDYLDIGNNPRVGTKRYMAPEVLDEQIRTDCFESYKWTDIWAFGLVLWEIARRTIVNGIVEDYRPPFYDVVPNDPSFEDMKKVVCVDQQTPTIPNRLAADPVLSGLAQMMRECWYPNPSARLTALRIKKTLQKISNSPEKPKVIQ
pIC50: −log10 of the molar value.
assay_readout: pIC50

[[record]]
compound = "CC1(c2ccc(-c3cnc4c(-c5cccc(S(C)(=O)=O)c5)cnn4c3)cc2)CCNCC1 [Compound 115]"
qualifying_sign = "="
recorded_number = 6.96

[[record]]
compound = "CC(O)c1cccc(-c2cnn3cc(-c4ccc(N5[C@H](C)CNC[C@@H]5C)cc4)cnc23)c1 (stereo partly drawn) [Compound 83]"
qualifying_sign = "="
recorded_number = 7.24

[[record]]
compound = "CC(C)(CN1CCCCC1)Oc1ccc(-c2cnc3c(-c4cccc5c(C(N)=O)cccc45)cnn3c2)cc1 [Compound 18]"
qualifying_sign = "="
recorded_number = 7.80

[[record]]
compound = "c1cc(-c2cc[nH]n2)cc(-c2cnn3cc(-c4ccc(CCN5CCCCC5)cc4)cnc23)c1 [Compound 90]"
qualifying_sign = "="
recorded_number = 7.17

[[record]]
compound = "CC(C)(O)c1cccc(-c2cnn3cc(-c4ccc(CCN5CCCCC5)cc4)cnc23)c1 [Compound 99]"
qualifying_sign = "="
recorded_number = 6.60

[[record]]
compound = "C[C@H](O)c1cccc(-c2cnn3cc(-c4ccc(OC5(CN6CCCC6)CC5)cc4)cnc23)c1 [Compound 198]"
qualifying_sign = "="
recorded_number = 6.15

[[record]]
compound = "CC(C)(O)c1cccc(-c2cnn3cc(-c4ccc(C5CCNCC5)cc4)cnc23)c1 [Compound 100]"
qualifying_sign = "="
recorded_number = 6.92

[[record]]
compound = "C[C@@H]1CNC[C@H](C)N1c1ccc(-c2cnc3c(-c4cccc(S(C)(=O)=O)c4)cnn3c2)cc1 [Compound 82]"
qualifying_sign = "="
recorded_number = 7.52

[[record]]
compound = "CS(=O)(=O)c1cccc(-c2cnn3cc(-c4ccc(CCN5CCCC5)cc4)cnc23)c1 [Compound 128]"
qualifying_sign = "="
recorded_number = 6.41

[[record]]
compound = "CN1CCC(c2ccc(-c3cnc4c(-c5cccc(C(C)(C)O)c5)cnn4c3)cc2)CC1 [Compound 92]"
qualifying_sign = "="
recorded_number = 7.04

[[record]]
compound = "C[C@@H]1CNC[C@H](C)N1c1ccc(-c2cnc3c(-c4cccc5c(S(=O)(=O)N(C)C)cccc45)cnn3c2)cc1 [Compound 40]"
qualifying_sign = "<"
recorded_number = 5.00

[[record]]
compound = "CS(=O)(=O)c1cccc(-c2cnn3cc(-c4ccc(CCN5CCC(O)C5)cc4)cnc23)c1 (stereo not drawn) [Compound 132]"
qualifying_sign = "="
recorded_number = 6.20

[[record]]
compound = "CC(O)c1cccc(-c2cnn3cc(-c4ccc(OCCN5CCCCC5)cc4)cnc23)c1 (stereo not drawn) [Compound 142]"
qualifying_sign = "="
recorded_number = 6.25

[[record]]
compound = "CS(=O)(=O)c1cccc(-c2cnn3cc(-c4ccc(OC5(CN6CCC(O)C6)CC5)cc4)cnc23)c1 (stereo not drawn) [Compound 195]"
qualifying_sign = "="
recorded_number = 6.57

[[record]]
compound = "CCNS(=O)(=O)c1cccc(-c2cnn3cc(-c4ccc(N5[C@H](C)CNC[C@@H]5C)cc4)cnc23)c1 [Compound 77]"
qualifying_sign = "="
recorded_number = 6.96

